experimental system: T1, rCI (phage phi11 CI lysogenic repressor) (Staphylococcus aureus phage phi11, UniProt Q8SDX2 1-239)
T1 sequence: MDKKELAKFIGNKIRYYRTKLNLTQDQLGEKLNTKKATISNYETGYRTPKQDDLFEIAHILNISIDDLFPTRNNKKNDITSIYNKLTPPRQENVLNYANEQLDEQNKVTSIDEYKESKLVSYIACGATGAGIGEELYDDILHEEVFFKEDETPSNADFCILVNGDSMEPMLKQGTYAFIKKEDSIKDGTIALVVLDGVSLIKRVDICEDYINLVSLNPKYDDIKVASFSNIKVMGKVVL
test name: EMSA; 0°C (on ice); EMSA with ~0.1 nM 32P-DNA, 20 min on ice (0°C) unless 42°C; RNAP assay and protein storage in buffer C (10 mM Tris-HCl pH 8.0, 200 mM NaCl, 1 mM EDTA, 5% glycerol); standard EMSA buffer not printed (per refs 7, 8); native PAGE 6% or 10%
assay context: protein: recombinant; tags: C-terminal His tag; chain copies: 2; label: 32P; 3' overhang 1 nt (both ends)
pKd: −log10 of the molar value.
endpoint label: pKd

* O1 (dsDNA) DNA 1: GACTCAAGTACACGTATCGTGTATAGTAGGTTTA DNA 2: AAACCTACTATACACGATACGTGTACTTGAGTCA | 8.50

All values here come from paper PMC3991615.
